Values were extracted from patent US20260184782A1.

Molecular target: T1, recombinant human TIGIT (human, UniProt Q495A1 22-141, limits assumed)
T1 construct: recombinant human TIGIT used in Carterra SPR; also called hTIGIT
T1 sequence (looked up): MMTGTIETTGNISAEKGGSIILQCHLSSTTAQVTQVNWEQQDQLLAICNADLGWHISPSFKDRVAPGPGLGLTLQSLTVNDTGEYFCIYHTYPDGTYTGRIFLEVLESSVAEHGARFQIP
Assay: SPR Carterra, average
What log10 of kon was measured for each of the following?
// units: M⁻¹ s⁻¹ (pre-log); metric: kon; scale: log10

Value of measured log10 of kon for the entry TIGIT-SC98 (Fc fusion, VHH-Fc fusion in assay) VHH: EVQLVESGGGLVQPGGSLRLSCAASGNTFSGGFMGWFRQAPGKEREWVASVLRGGYTWYADSVKGRFTISADNSKNTAYLQMNSLKPEDTAVYYCTTEGFDPWGQGTLVTVSS : 5.37

The recorded log10 of kon for TIGIT-SC9 (Fc fusion, VHH-Fc fusion in assay) VHH: EVQLVESGGGLVQPGGSLRLSCAASGNTFSGGFMGWFRQAPGKEREWVASVLRGGYTWYADSVKGRFTISADNSKNTAYLQMNSLKPEDTAVYYCVNGYSYGRDYWGQGTLVTVSS is 5.43

Form: binder = TIGIT-SC145 (Fc fusion, VHH-Fc fusion in assay) VHH: EVQLVESGGGLVQPGGSLRLSCAASGNTFSGGFTLGYYVMGWFRQAPGKEREFVAAISRSGTLKAYADGVKGRFTISADNSKNTAYLQMNSLKPEDTAVYYCARVEAYGDPLGYWGQGTLVTVSS ; log10 of kon = 5.35

GET /value?item= TIGIT-SC199 (Fc fusion, VHH-Fc fusion in assay) VHH: EVQLVESGGGLVQPGGSLRLSCAASGFSSAQYAMGWFRQAPGKERELVASIDSEGRTNYADSVKGRFTISADNSKNTAYLQMNSLKPEDTAVYYCTRDGGFDPWGQGTLVTVSS &field=log10 of kon returns 5.60

Data point: TIGIT-SC24 (Fc fusion, VHH-Fc fusion in assay) VHH: EVQLVESGGGLVQPGGSLRLSCAASGFTFDRSWMGWFRQAPGKEREVVASITSGGSTYYADSVKGRFTISADNSKNTAYLQMNSLKPEDTAVYYCAADVWYGSTWRNWGQGTLVTVSS ; log10 of kon = 5.70

log10 of kon recorded for this binder, TIGIT-SC103 (Fc fusion, VHH-Fc fusion in assay) VHH: EVQLVESGGGLVQPGGSLRLSCAASGTITSAVFMGWFRQAPGKEREFVAAISWSGGDTNYADSVKGRFTISADNSKNTAYLQMNSLKPEDTAVYYCARWGGITFGGVYPLDYWGQGTLVTVSS , is 5.16

Measured log10 of kon of TIGIT-SC61 (Fc fusion, VHH-Fc fusion in assay) VHH: EVQLVESGGGLVQPGGSLRLSCAASGNTFSGGFMGWFRQAPGKEREWVASVLRGGYTWYADSVKGRFTISADNSKNTAYLQMNSLKPEDTAVYYCTRGDTAMATFDYWGQGTLVTVSS : 4.80

TIGIT-SC108 (Fc fusion, VHH-Fc fusion in assay) VHH: EVQLVESGGGLVQPGGSLRLSCAASGNTFSGGFMGWFRQAPGKEREWVASVLRGGYTWYADSVKGRFTISADNSKNTAYLQMNSLKPEDTAVYYCANGGRVWWAFDYWGQGTLVTVSS yielded log10 of kon of 5.31

Measured log10 of kon, TIGIT-SC73 (Fc fusion, VHH-Fc fusion in assay) VHH: EVQLVESGGGLVQPGGSLRLSCAASGSSFSLADYAMGWFRQAPGKEREFVAAISYNVGTTYYADSVKGRFTISADNSKNTAYLQMNSLKPEDTAVYYCARWSAKRHSDTMTYYMDVWGQGTLVTVSS : 5.10

Entry under test: TIGIT-SC5 (Fc fusion, VHH-Fc fusion in assay) VHH: EVQLVESGGGLVQPGGSLRLSCAASGFAFGDSWMGWFRQAPGKEREWVASVLRGGYTWYADSVKGRFTISADNSKNTAYLQMNSLKPEDTAVYYCARESEGWFDPWGQGTLVTVSS . Its log10 of kon was 4.62

// field: log10 of kon; key: TIGIT-SC93 (Fc fusion, VHH-Fc fusion in assay) VHH: EVQLVESGGGLVQPGGSLRLSCAASSRTVSSHAMGWFRQAPGKEREFVAAISWSGVTTYYADSVKGRFTISADNSKNTAYLQMNSLKPEDTAVYYCARWRSIWSGYDDYYYMDVWGQGTLVTVSS ; value = 4.91

Notebook: TIGIT-SC124 (Fc fusion, VHH-Fc fusion in assay) VHH: EVQLVESGGGLVQPGGSLRLSCAASGSIFSSNWMGWFRQAPGKEREMVAAIDWSGGSALYADSVKGRFTISADNSKNTAYLQMNSLKPEDTAVYYCAKDALSNSARFDHWGQGTLVTVSS , log10 of kon read as 5.02

Quick note, log10 of kon for TIGIT-SC41 (Fc fusion, VHH-Fc fusion in assay) VHH: EVQLVESGGGLVQPGGSLRLSCAASGMTTIGPMGWFRQAPGKEREFVASIAWGDGNTYYADSVKGRFTISADNSKNTAYLQMNSLKPEDTAVYYCVRGGSRTLWGQGTLVTVSS landed at 5.80

Lab note: measured log10 of kon of TIGIT-SC140 (Fc fusion, VHH-Fc fusion in assay) VHH: EVQLVESGGGLVQPGGSLRLSCAASGNTFSGGFTFDRSWMGWFRQAPGKEREWVASVLRGGYTWYADSVKGRFTISADNSKNTAYLQMNSLKPEDTAVYYCAGDRYYDFWSGPNSGDYWGQGTLVTVSS was 4.84

For record TIGIT-SC177 (Fc fusion, VHH-Fc fusion in assay) VHH: EVQLVESGGGLVQPGGSLRLSCAASGFTFSPSWMGWFRQAPGKEREWVASVLRGGYTWYADSVKGRFTISADNSKNTAYLQMNSLKPEDTAVYYCATDRGPAMVFNLWGQGTLVTVSS the listed log10 of kon is 4.69
